- experimental.system: recombinant human KIT tyrosine kinase protein (Homo sapiens (Human))
- assay.name: KIT tyrosine kinase assay (ADP-Glo)
- Format: biochemical
- experimental.setup: Table 98
We begin with a simple list: items and their reported pIC50.
Quick note: pIC50 means taking -log10 of the concentration in moles per liter.

-- ask Enter reported pIC50 observed with recombinant human KIT tyrosine kinase protein (Homo sapiens (Human)) for `Cn1c(=O)[nH]c2cc(C(=O)NCc3cnc4c(c3)CCN4c3ccccc3F)ccc21`
-- reply 7.22

---

# maps each entry to its pIC50
- experimental.system: recombinant human KIT tyrosine kinase protein (Homo sapiens (Human), UniProt P10721)
- Sequence (P10721 546-976): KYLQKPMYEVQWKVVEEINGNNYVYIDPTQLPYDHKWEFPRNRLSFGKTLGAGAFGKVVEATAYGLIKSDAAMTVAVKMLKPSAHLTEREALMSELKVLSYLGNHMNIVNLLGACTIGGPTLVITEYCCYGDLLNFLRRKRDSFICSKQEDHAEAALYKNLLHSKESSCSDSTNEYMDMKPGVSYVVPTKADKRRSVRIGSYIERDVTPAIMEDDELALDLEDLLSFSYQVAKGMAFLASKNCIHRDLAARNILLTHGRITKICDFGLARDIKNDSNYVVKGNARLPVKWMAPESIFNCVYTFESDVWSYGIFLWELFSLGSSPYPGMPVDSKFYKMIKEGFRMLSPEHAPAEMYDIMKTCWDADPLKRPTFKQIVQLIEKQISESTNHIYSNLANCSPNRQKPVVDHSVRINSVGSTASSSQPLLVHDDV
- assay.name: KIT tyrosine kinase assay (ADP-Glo)
- Format: biochemical
- experimental.setup: Table 98
- Experimental: An in vitro assay utilizing the recombinant human KIT tyrosine kinase protein was developed to measure compound inhibition of KIT. KIT tyrosine kinase activity was measured by the ADP-Glo Kinase Assay system with poly […]) peptide substrate. Kinase Assay was performed in white 384-well plates and the luminescence was measured by Victor X5 Multilabel Counter (Perkin Elmer). […] The tyrosine phosphorylation by KIT kinase was quantified by ADP-Glo kinase assay kit following the manufacturer's protocol. […]
Note on pIC50: it is the negative log10 of concentration, concentration in mol/L.

>>> quantitative_readout("CN(c1ccc(CNC(=O)c2ccc3c(c2)[nH]c(=O)n3C)cn1)C1CC(F)(F)C1")
7.46

-- ask Form field: reported pIC50 of `CN(Cc1ccccc1)c1ncc(CNC(=O)c2ccc3c(c2)[nH]c(=O)n3C)s1`
-- reply 6.92

-- ask Can you look up the measured pIC50 of `Cn1c(=O)[nH]c2cc(C(=O)NCc3cnc(N(C)[C@H]4C[C@@H](C(F)(F)F)C4)cn3)ccc21` for me?
-- reply 7.62

-- ask Reported pIC50 for `CN(c1ccc(CNC(=O)c2ccc3c(c2)[nH]c(=O)n3C)cn1)C12CC(C)(C1)C2` : what is it?
-- reply 7.59
